assay: Inhibition of neuraminidase
measured.attribute: pIC50
One number for each entry, as −log10 of the molar value.

Items follow; give pIC50 for each.
1. NC(Cn1ccc(=O)c(O)c1)C(=O)N[C@@H](Cc1ccccc1)C(=O)O (some centres not stated)
2. NC(Cn1ccc(=O)c(O)c1)C(=O)N[C@@H](Cc1ccc(O)cc1)C(=O)O (some centres not stated)

5.74
5.55

====

Kindly supply the reported log10 IC50 values for the records listed here.
molecular target: UniProtKB B4URF0; design: species or system (A/duck/China/QJ/01(H5N1))
Sequence (B4URF0 whole entry): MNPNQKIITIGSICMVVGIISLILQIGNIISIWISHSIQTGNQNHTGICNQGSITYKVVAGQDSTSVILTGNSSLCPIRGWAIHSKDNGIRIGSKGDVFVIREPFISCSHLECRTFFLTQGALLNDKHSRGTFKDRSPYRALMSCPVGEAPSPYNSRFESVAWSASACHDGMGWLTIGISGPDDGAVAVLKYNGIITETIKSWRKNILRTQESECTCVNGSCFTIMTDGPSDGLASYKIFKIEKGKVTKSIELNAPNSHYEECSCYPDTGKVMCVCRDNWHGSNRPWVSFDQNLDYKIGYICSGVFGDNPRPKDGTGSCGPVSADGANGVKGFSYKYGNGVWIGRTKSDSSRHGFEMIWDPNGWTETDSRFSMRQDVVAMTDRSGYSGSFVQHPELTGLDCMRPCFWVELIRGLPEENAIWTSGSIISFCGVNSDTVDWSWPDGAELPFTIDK
Form field - Quantity: IC50; Unit: µM; Scale: log10

Recorded results for 8 compounds are shown here.
[
  {
    "structure.string": "Cl.N[C@@H](Cc1ccccc1)C(=O)Nc1cc(NC(=O)/C=C/c2ccco2)ccc1O",
    "log10 IC50": 2.11
  },
  {
    "structure.string": "CC(C)C[C@H](N)C(=O)Nc1cc(NC(=O)/C=C/c2ccc(O)c(O)c2)ccc1O.Cl",
    "log10 IC50": 2.13
  },
  {
    "structure.string": "CC(C)[C@H](N)C(=O)Nc1cc(NC(=O)/C=C/c2ccco2)ccc1O.Cl",
    "log10 IC50": 2.24
  },
  {
    "structure.string": "C[C@@H](O)[C@H](N)C(=O)Nc1cc(NC(=O)/C=C/c2ccco2)ccc1O.Cl",
    "log10 IC50": 2.27
  },
  {
    "structure.string": "Cl.NCCCC(=O)Nc1cc(NC(=O)/C=C/c2ccco2)ccc1O",
    "log10 IC50": 2.12
  },
  {
    "structure.string": "Cl.NCCC(=O)Nc1cc(NC(=O)/C=C/c2ccco2)ccc1O",
    "log10 IC50": 2.03
  },
  {
    "structure.string": "Cl.NCCCC[C@H](N)C(=O)Nc1cc(NC(=O)/C=C/c2ccco2)ccc1O",
    "log10 IC50": 2.35
  },
  {
    "structure.string": "Cl.N[C@@H](CO)C(=O)Nc1cc(NC(=O)/C=C/c2ccco2)ccc1O",
    "log10 IC50": 2.16
  }
]

Items follow; give log10 IC50 for each.
1. CSCC[C@H](N)C(=O)Nc1cc(NC(=O)/C=C/c2ccco2)ccc1O.Cl
2. CC(C)C[C@H](N)C(=O)Nc1cc(NC(=O)/C=C/c2ccco2)ccc1O.Cl
3. CC[C@H](C)[C@H](N)C(=O)Nc1cc(NC(=O)/C=C/c2ccco2)ccc1O.Cl
4. Cl.N=C(NCCC[C@H](N)C(=O)Nc1cc(NC(=O)/C=C/c2ccco2)ccc1O)N[N+](=O)[O-]
5. Cl.O=C(/C=C/c1ccco1)Nc1ccc(O)c(NC(=O)[C@@H]2C[C@@H](O)CN2)c1
6. Cl.NCC(=O)Nc1cc(NC(=O)/C=C/c2ccco2)ccc1O
7. Cl.N[C@@H](Cc1c[nH]c2ccccc12)C(=O)Nc1cc(NC(=O)/C=C/c2ccco2)ccc1O
8. CC(C)[C@H](N)C(=O)Nc1cc(NC(=O)/C=C/c2ccc(O)c(O)c2)ccc1O.Cl

2.08
2.17
2.01
2.28
2.04
2.14
2.28
2.06

Items follow; give log10 IC50 for each.
1. Cl.O=C(/C=C/c1ccco1)Nc1ccc(O)c(NC(=O)[C@@H]2CCCN2)c1
2. C[C@H](N)C(=O)Nc1cc(NC(=O)/C=C/c2ccco2)ccc1O.Cl
3. CC[C@H](C)[C@H](N)C(=O)Nc1cc(NC(=O)/C=C/c2ccc(O)c(O)c2)ccc1O.Cl

[1.76, 2.04, -1.92]

Given C[C@H](N)C(=O)Nc1cc(NC(=O)/C=C/c2ccc(O)c(O)c2)ccc1O.Cl , respond with its log10 IC50.
2.05

Values from ChEMBL document CHEMBL3046304
